# Test system: TK-10 renal
# Experiment Description: NCI-60 one-dose screen, 48 h
# Condition Parameters: 10 µM unless noted
The panel holds about 83,000 compounds, 20% with a hit somewhere; the sample as a whole holds those more often. Active and inactive are the calls of the source. Rule for the calls: active = growth percent below 10; inactive = the rest.
Outcome codes: active, inactive

compound="CCC(C)c1c(N)n(S(=O)(=O)c2ccc(C)cc2)oc1=O (stereo unspecified)" class=inactive
compound=CCCCCCCCNC(=O)C(C)C class=inactive
compound=C=C(C)[C@@H]1CC[C@]2(CO)CC[C@]3(C)[C@H](CC[C@@H]4[C@@]5(C)CC[C@H](O)C(C)(C)[C@@H]5CC[C@]43C)[C@@H]12 class=inactive
compound=Cc1cc2c3ccc(C)[n+](C)c3ccc2n1C class=inactive
compound=CC(=O)C[n+]1ccc(C)cc1Sc1ccccc1C class=inactive
compound="NC(=S)c1c(N)n(C2OC(CO)C(O)C2O)c2ncnc(N)c12 (stereo unspecified)" class=active
compound=CCc1ccccc1C(=O)N(CC)CC class=inactive
compound=O=C(c1ccccc1)c1ccc(-c2ccc(O)cc2)cc1 class=inactive
compound="COC1C(=O)CCC2(CO2)C1(O)C1(C)OC1CCC(C)C (stereo unspecified)" class=inactive
compound="CC1(C)OC2C(CO)OC(n3ccc(=O)[nH]c3=O)C2O1 (stereo unspecified)" class=inactive
compound="N#CCCN1C(=O)CCC1C(=O)O (stereo unspecified)" class=inactive
compound=COc1cc(-c2ccc(NC(=O)CC(C)=O)c(OC)c2)ccc1NC(=O)CC(C)=O class=inactive
compound=CCOc1ccc(C(=O)O)cc1 class=inactive
compound=ClCc1cccc2c(CCl)cccc12 class=inactive
compound=c1cc(CNCCNCc2ccncc2)ccn1 class=inactive
compound=CSc1nsc(N)n1 class=inactive
compound=CC(=O)Nc1ncc(S(=O)(=O)c2ccc([N+](=O)[O-])cc2)s1 class=inactive
compound=O=C1C=CC(=O)C2=C1CCCC2 class=inactive
compound=S=C(NCc1ccccc1)N1CCC(CCCC2CCN(C(=S)NCc3ccccc3)CC2)CC1 class=inactive
compound=CCCCCCCCCCCCCCCCCCSC(=N)N class=inactive
compound=Nc1cc(F)ccc1[N+](=O)[O-] class=inactive
compound=c1ccc(-c2ccc3ccccc3c2)cc1 class=inactive
compound="Nc1ncnc2c1ncn2C1OC(CO)C2OC21 (stereo unspecified)" class=inactive
compound="O=C1NC(=O)C(c2ccccc2)O1 (stereo unspecified)" class=inactive
compound=O=S(=O)(OCCOS(=O)(=O)c1ccccc1)c1ccccc1 class=inactive
compound="C=CCC(OC(C)=O)c1ccc(OC)c(OC)c1 (stereo unspecified)" class=inactive

====

# System: NCI/ADR-RES ovarian
# Experiment Description: NCI-60 one-dose screen, 48 h (100 = growth as untreated, 0 = no growth, -100 = all killed)
# Condition Parameters: 10 µM unless noted
About 83,000 compounds went through this panel and 20% of them were active in at least one assay; those are over-represented in the sample as a whole.
Overview of reported growth across a group of compounds:
Readout: growth (%)

compound=CCOC(=O)C(C#N)=C1CCN(C)CC1 reported_result=115
compound=CC(C)NC(=O)OCc1c(COC(=O)NC(C)C)c(-c2ccc(Cl)cc2)n2c1CCC2 reported_result=46.5
compound=O=C(O)Cc1cccc2ccccc12 reported_result=100
compound=CC(C)N(C(=O)c1ccccc1)C(C)C reported_result=115
compound=CCCCCCCCCCC(=O)CCCCCCCCCC reported_result=100
compound=CC(=O)c1cccc(O)c1 reported_result=100
compound=C=CCOc1ccc(Cl)cc1Cl reported_result=109
compound=S=CN1CCCCC1 reported_result=106
compound=CCCCCC(=O)OCCC1CCCCC1 reported_result=103
compound=O=c1[nH]c(=O)c2cc(Cl)cc(Cl)c2[nH]1 reported_result=131
compound=NS(=O)(=O)c1cc(=O)[nH]c(=O)[nH]1 reported_result=109
compound=O=C(NC(=S)N1CC=CCC1)c1ccccc1 reported_result=108
compound=CCCCN(C(=O)CC)c1ccccc1 reported_result=110
compound="CC(C)(C)NCCC(O)c1cc(C(F)(F)F)nc2c(C(F)(F)F)cccc12 (centres undefined)" reported_result=84.6

====

# Tested on: HOP-62 NSCLC
# Experiment Description: NCI-60 one-dose screen, 48 h (100 = growth as untreated, 0 = no growth, -100 = all killed)
# Condition Parameters: 10 µM unless noted
Compounds without any hit were thinned out: in the full panel of roughly 83,000, 20% have a hit. The source made the active and inactive calls. How the source made its calls: active means growth percent below 10; inactive means the rest.
Readout: growth

compound=CCC(=O)Oc1ccc2ccccc2c1 target_entity="HOP-62 NSCLC" reported_result="81% (inactive)"
compound=CCOC(=O)N[C@H]1CCc2cc(OC)c(OC)c(OC)c2-c2ccc(SC)c(=O)cc21 target_entity="HOP-62 NSCLC" reported_result="30.1% (inactive)"
compound=CC(=O)NNC(=S)N/C=C/c1c(C)ccc([N+](=O)[O-])c1[N+](=O)[O-] target_entity="HOP-62 NSCLC" reported_result="103% (inactive)"
compound=Nc1cc(N)ncn1 target_entity="HOP-62 NSCLC" reported_result="112% (inactive)"
compound=CCC(/C=C\C(C)=O)CC target_entity="HOP-62 NSCLC" reported_result="94.9% (inactive)"
compound=CC(C)NC(=O)OCc1c(COC(=O)NC(C)C)c(-c2ccc(Cl)cc2)n2c1CCC2 target_entity="HOP-62 NSCLC" reported_result="46.4% (inactive)"
compound=Cn1c(=O)c2[nH]c(CC(=O)O)nc2n(C)c1=O target_entity="HOP-62 NSCLC" reported_result="97.2% (inactive)"
compound=CCCCCCCCCc1ccc(OC(C)=O)cc1 target_entity="HOP-62 NSCLC" reported_result="113% (inactive)"
compound=CCCc1cccc(CCC)c1NC(=O)Nc1cc(Cl)cc(Cl)c1 target_entity="HOP-62 NSCLC" reported_result="104% (inactive)"
compound=FC(F)(F)c1cc(NC2=NCCN=C(Nc3cc(C(F)(F)F)cc(C(F)(F)F)c3)SS2)cc(C(F)(F)F)c1 target_entity="HOP-62 NSCLC" reported_result="74.8% (inactive)"
compound=CC(=O)c1cc(O)ccc1O target_entity="HOP-62 NSCLC" reported_result="89.3% (inactive)"
compound=O=C(Nc1cccc(Cl)c1)c1ccc(Cl)cc1Cl target_entity="HOP-62 NSCLC" reported_result="92.3% (inactive)"
compound="CC(C)C1CCC(C)C(O)C1 (stereo unspecified)" target_entity="HOP-62 NSCLC" reported_result="95.3% (inactive)"
compound=O=C(N/N=C\c1ccc(Cl)cc1Cl)c1ccncc1 target_entity="HOP-62 NSCLC" reported_result="112% (inactive)"
compound=CCOC(=O)c1c(C)[nH]c(C)c1C=O target_entity="HOP-62 NSCLC" reported_result="86.9% (inactive)"
compound=COc1ccc(C(=O)C(=O)c2ccccc2)cc1 target_entity="HOP-62 NSCLC" reported_result="102% (inactive)"
compound=O=[N+]([O-])c1c(Cl)ncnc1Cl target_entity="HOP-62 NSCLC" reported_result="104% (inactive)"
compound=C=CCc1cc(OC)c(O)c(OC)c1 target_entity="HOP-62 NSCLC" reported_result="97.4% (inactive)"
compound=CN(C)CCOC(=O)Nc1ccc(Cc2ccc(NC(=O)OCCN(C)C)cc2)cc1 target_entity="HOP-62 NSCLC" reported_result="97.7% [100 µM] (inactive)"
compound=CCCCOC(=O)c1ccccc1O target_entity="HOP-62 NSCLC" reported_result="110% (inactive)"
compound=CCOC(=O)C(C#N)=C1CCN(C)CC1 target_entity="HOP-62 NSCLC" reported_result="104% (inactive)"
compound=NC(=S)N/N=C/c1ccc(OC(=O)COc2ccccc2)cn1 target_entity="HOP-62 NSCLC" reported_result="57.9% (inactive)"
compound=Cc1onc(-c2ccccc2Cl)c1C(=O)Cl target_entity="HOP-62 NSCLC" reported_result="86.5% (inactive)"
compound=Oc1cc(O)c2c(c1)O[C@H](c1ccc(O)c(O)c1)[C@@H](O)C2 target_entity="HOP-62 NSCLC" reported_result="107% (inactive)"
compound=C=CCc1cc(OC)c(OC)c(OC)c1 target_entity="HOP-62 NSCLC" reported_result="104% (inactive)"
compound=CCCCCCCCCCC(=O)CCCCCCCCCC target_entity="HOP-62 NSCLC" reported_result="92.3% (inactive)"

====

Parameter: growth. Scope: all listed entries.
# System: SNB-19 CNS
# Experiment Description: NCI-60 one-dose screen, 48 h (100 = growth as untreated, 0 = no growth, -100 = all killed)
# Condition Parameters: 10 µM unless noted
About 83,000 compounds went through this panel and 20% of them were active in at least one assay; those are over-represented in the sample as a whole.
Readout: growth (%)

molecule="CCC1CCC(C)NC1 (stereo not given)" measurement_units=% reported_result=100
molecule="Nc1ccccc1SC1CC(=O)N(c2ccc(Cl)c(Cl)c2)C1=O (stereo not given)" measurement_units=% reported_result=96.6
molecule="COC1C(=O)CCC2(CO2)C1(O)C1(C)OC1CCC(C)C (stereo not given)" measurement_units=% reported_result=51.5
molecule="COC1(OC)C2(Cl)C(Cl)=C(Cl)C1(Cl)C1COCC12 (stereo not given)" measurement_units=% reported_result=100
molecule=CCOS(=O)(=O)c1ccc([N+](=O)[O-])cc1 measurement_units=% reported_result=101
molecule=Cc1ccc2nc(-c3ccc(N=Cc4ccccc4O)cc3)sc2c1 measurement_units=% reported_result=92.3
molecule=NC(=S)N/N=C/c1ccc(OC(=O)COc2ccccc2)cn1 measurement_units=% reported_result=74.9
molecule="O=S(Cc1ccccc1)/C(=C/NC(=S)Nc1ccccc1)c1ccccc1 (stereo not given)" measurement_units=% reported_result=110
molecule=NC(=O)N1CCOCC1 measurement_units=% reported_result=101
molecule="NCC(O)C(O)C(O)C(O)CO (stereo not given)" measurement_units=% reported_result=104
molecule=CCOP(=O)(NC(c1ccccc1)c1ccccc1)OCC measurement_units=% reported_result=102
molecule=COc1cc(CC#N)c([N+](=O)[O-])cc1OC measurement_units=% reported_result=109
molecule="CC(=O)OCC1CCC(COC(C)=O)CC1 (stereo not given)" measurement_units=% reported_result=109
molecule=CC(=O)c1ccc(C)cc1 measurement_units=% reported_result=109
molecule=CSc1nc2[nH]ncc2c(=O)[nH]1 measurement_units=% reported_result=103
molecule="CC(C)(C)NCCC(O)c1cc(C(F)(F)F)nc2c(C(F)(F)F)cccc12 (stereo not given)" measurement_units=% reported_result=87.2
molecule=O=C(Nc1c(Cl)cc(Cl)cc1Cl)ON=C1CCCCC1 measurement_units=% reported_result=108
molecule=Cc1cc(Cc2ccccc2)c(O)c(Cc2ccccc2)c1 measurement_units=% reported_result=102
molecule=Cc1ccc(C)c(CCO)c1 measurement_units=% reported_result=101
molecule=Nc1ccc2ccccc2c1-c1c(N)ccc2ccccc12 measurement_units=% reported_result=44.1
molecule=Cn1c2ccccc2c2nnc(NCCCCO)nc21 measurement_units=% reported_result=94.7
molecule="CC(c1ccccc1)N(C)C (stereo not given)" measurement_units=% reported_result=100
molecule=Cc1ccccc1NC(=O)Oc1ccc(Cl)cc1C(=O)c1ccccc1 measurement_units=% reported_result=96
molecule="CC1(c2ccccc2)CO1 (stereo not given)" measurement_units=% reported_result=102
molecule=CCCC(=O)CC(=O)c1ccccc1 measurement_units=% reported_result=103
molecule=C=CCc1cc(OC)c(O)c(OC)c1 measurement_units=% reported_result=109
molecule=O=C1C=C[C@H](O)[C@@]2(CO)O[C@@H]12 measurement_units=% reported_result=100
molecule=CNc1ccccc1C(=O)N/N=C/C=C/c1ccccc1 measurement_units=% reported_result=53.9
molecule="CC(C)C1CCC(C)C(O)C1 (stereo not given)" measurement_units=% reported_result=99.6
molecule=O=C(O)c1ccc([N+](=O)[O-])cc1S(=O)(=O)O measurement_units=% reported_result=105
molecule=COc1ccc(/C=N/NC(=O)COCC(=O)N/N=C/c2ccc(OC)cc2)cc1 measurement_units=% reported_result=110
molecule=Cc1[nH]c(=S)[nH]c(=O)c1C measurement_units=% reported_result=103
molecule=CCOc1ccc(NC(=S)N2CCC(CCCC3CCN(C(=S)Nc4ccc(OCC)cc4)CC3)CC2)cc1 measurement_units=% reported_result=96
molecule=CCCCCCCCCCCCSC1=C(Cl)C(=O)C(OC)=C(OC)C1=O measurement_units=% reported_result=71.8
molecule=CC(=O)NNC(=S)N/C=C/c1c(C)ccc([N+](=O)[O-])c1[N+](=O)[O-] measurement_units=% reported_result=113
molecule=NNC(=O)CCCCl measurement_units=% reported_result=121
molecule=O=S(=O)(O)c1ccc(O)c(C2CCCCC2)c1 measurement_units=% reported_result=104
molecule=CN(C)c1ccc2c(N(C)C)cc(N(C)C)nc2c1 measurement_units=% reported_result=84.5
molecule=CCC(=O)C1C(=O)c2ccccc2C1=O measurement_units=% reported_result=109
molecule=COc1cc(C(=O)N2CCN(c3ccccc3)CC2)c2ccccc2n1 measurement_units=% reported_result=28.4
molecule=O=C(O)Cc1cccc2ccccc12 measurement_units=% reported_result=116
molecule="CCN1CCCC(N2c3ccccc3Sc3ccccc32)C1 (stereo not given)" measurement_units=% reported_result=110
molecule=Nc1c(Br)cc(O)c2c1C(=O)c1ccccc1C2=O measurement_units=% reported_result=95.2
molecule=Nc1cccc2cccc(O)c12 measurement_units=% reported_result=98.7
molecule="COC1OC(CO)C(OC)C(O)C1O (stereo not given)" measurement_units=% reported_result=105
molecule=O=C(O)c1ccc(OCc2ccccc2)cc1 measurement_units=% reported_result=95
molecule=c1ccc2[nH]c(Cc3nc4ccccc4[nH]3)nc2c1 measurement_units=% reported_result=130
molecule=C=COC(=O)C(C)(C)C measurement_units=% reported_result=95.3
molecule=Cc1cc(C(=O)c2ccccc2)cc(C)c1O measurement_units=% reported_result=120
molecule=CCCNS(=O)(=O)c1ccc(Cl)cc1 measurement_units=% reported_result=104
molecule="CC(=O)C1C(=O)C(=O)N(c2cccc([N+](=O)[O-])c2)C1=O (stereo not given)" measurement_units=% reported_result=104
molecule=COc1ccc2c(ccc[n+]2C)c1 measurement_units=% reported_result=101
molecule=CCNCC(C)(C)O measurement_units=% reported_result=102
molecule=O=C1C=CC(=O)C2=C1CCCC2 measurement_units=% reported_result=92.7
molecule=C=C(C)COc1ccc(C(C)(C)C)cc1 measurement_units=% reported_result=103
